All figures here come from patent US11021467B2.

target: PI3Kβ (Homo sapiens (Human)); assay: TR-FRET enzymatic activity assay against PI3K isoforms; conditions: PI3Kβ, TR-FRET, 2×Km ATP, 30 minutes at 25° C.
Sequence (P42338 whole entry, canonical isoform): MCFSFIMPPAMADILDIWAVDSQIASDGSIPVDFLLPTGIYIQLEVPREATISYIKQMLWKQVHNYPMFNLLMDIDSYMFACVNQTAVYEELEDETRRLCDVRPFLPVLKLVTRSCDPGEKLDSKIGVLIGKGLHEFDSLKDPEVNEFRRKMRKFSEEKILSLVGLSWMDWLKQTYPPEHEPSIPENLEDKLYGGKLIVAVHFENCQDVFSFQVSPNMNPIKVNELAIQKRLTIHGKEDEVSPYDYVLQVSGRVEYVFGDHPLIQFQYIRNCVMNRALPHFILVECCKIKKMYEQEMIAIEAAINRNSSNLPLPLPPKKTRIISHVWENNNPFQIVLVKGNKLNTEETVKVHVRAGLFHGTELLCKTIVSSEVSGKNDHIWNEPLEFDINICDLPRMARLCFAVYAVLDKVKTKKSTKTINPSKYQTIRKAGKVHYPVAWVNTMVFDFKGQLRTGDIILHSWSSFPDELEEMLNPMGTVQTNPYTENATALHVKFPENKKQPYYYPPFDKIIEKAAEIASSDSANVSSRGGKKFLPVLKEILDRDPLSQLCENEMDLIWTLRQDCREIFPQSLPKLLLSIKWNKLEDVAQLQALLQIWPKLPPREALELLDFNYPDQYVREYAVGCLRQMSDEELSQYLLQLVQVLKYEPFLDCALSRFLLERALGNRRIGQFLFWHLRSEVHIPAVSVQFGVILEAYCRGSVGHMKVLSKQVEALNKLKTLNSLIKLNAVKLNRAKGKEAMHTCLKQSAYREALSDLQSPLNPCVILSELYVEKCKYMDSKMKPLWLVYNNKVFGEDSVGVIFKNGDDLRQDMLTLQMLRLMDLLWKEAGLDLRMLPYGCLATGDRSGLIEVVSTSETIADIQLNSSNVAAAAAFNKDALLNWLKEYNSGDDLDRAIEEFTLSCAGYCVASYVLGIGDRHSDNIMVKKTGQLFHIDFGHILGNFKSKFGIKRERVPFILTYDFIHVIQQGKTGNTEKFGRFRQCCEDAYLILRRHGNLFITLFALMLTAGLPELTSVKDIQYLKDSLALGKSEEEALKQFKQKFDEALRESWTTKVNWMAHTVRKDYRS
Sequence (P27986 whole entry partner, canonical isoform): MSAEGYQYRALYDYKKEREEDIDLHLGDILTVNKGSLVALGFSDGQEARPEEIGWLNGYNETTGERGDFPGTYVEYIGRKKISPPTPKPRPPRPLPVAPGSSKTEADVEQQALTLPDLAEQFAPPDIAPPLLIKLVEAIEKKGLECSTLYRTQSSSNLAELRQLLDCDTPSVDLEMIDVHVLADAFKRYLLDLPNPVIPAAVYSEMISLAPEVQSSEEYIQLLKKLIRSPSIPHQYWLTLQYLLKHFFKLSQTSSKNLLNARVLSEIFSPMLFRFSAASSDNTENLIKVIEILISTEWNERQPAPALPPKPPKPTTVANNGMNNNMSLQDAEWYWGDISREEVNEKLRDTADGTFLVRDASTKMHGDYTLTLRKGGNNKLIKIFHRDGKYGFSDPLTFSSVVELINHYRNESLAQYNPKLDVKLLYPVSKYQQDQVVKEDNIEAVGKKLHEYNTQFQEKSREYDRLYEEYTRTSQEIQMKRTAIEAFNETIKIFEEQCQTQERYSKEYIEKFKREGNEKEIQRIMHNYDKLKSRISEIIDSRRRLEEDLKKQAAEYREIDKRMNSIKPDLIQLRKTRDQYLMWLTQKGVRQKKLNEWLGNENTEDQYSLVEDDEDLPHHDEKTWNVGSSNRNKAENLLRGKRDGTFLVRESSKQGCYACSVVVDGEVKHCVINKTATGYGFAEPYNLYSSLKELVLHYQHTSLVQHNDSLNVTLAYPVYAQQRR
# reported IC50; entries follow

compound: N#CCCn1c([C@@H](Nc2nc(N)nc(N)c2Cl)C2CC2)nc2cccc(Cl)c2c1=O
measurement target: PI3Kβ (Homo sapiens (Human))
IC50 / µM: 0.64

compound: C[C@H](Nc1nc(N)nc(N)c1C#N)c1nc2c(Cl)ccc(Cl)c2c(=O)n1[C@H]1C[C@H](O)C1
measurement target: PI3Kβ (Homo sapiens (Human))
IC50 / µM: 0.14

compound: COC[C@H](C)n1c([C@H](C)Nc2nc(N)nc(N)c2C#N)nc2cccc(Cl)c2c1=O
measurement target: PI3Kβ (Homo sapiens (Human))
IC50 / µM: 0.058

compound: C[C@H](Nc1nc(N)nc(N)c1C#N)c1nc2cccc(Cl)c2c(=O)n1N(CCN)Cc1ccccc1 [Compound 9]
measurement target: PI3Kβ (Homo sapiens (Human))
IC50 / µM: 0.17

---

molecular target: PI3Kβ (Homo sapiens (Human)); experiment: TR-FRET enzymatic activity assay against PI3K isoforms; details: PI3Kβ, TR-FRET, 2×Km ATP, 30 minutes at 25° C.
# reported IC50; entries follow

compound: NC(=O)CCCn1c([C@@H](Nc2nc(N)nc(N)c2Cl)C2CC2)nc2cccc(Cl)c2c1=O [Compound 69]
measurement target: PI3Kβ (Homo sapiens (Human))
IC50 / nM: 49
--
compound: C[C@H](Nc1nc(N)nc(N)c1C#N)c1nc2cccc(Cl)c2c(=O)n1CCC(=O)N(C)C [Compound 128]
measurement target: PI3Kβ (Homo sapiens (Human))
IC50 / nM: 530
--
compound: COCC(COC)n1c([C@H](C)Nc2nc(N)nc(N)c2C#N)nc2cccc(Cl)c2c1=O [Compound 131]
measurement target: PI3Kβ (Homo sapiens (Human))
IC50 / nM: 210
--
compound: C[C@H](Nc1nc(N)nc(N)c1C#N)c1nc2cccc(Cl)c2c(=O)n1C[C@H]1CCNC1 [Compound 125]
measurement target: PI3Kβ (Homo sapiens (Human))
IC50 / nM: 49
--
compound: C[C@H](Nc1ncnc(N)c1C#N)c1nc2cccc(Cl)c2c(=O)n1C[C@H](O)CO [Compound 143]
measurement target: PI3Kβ (Homo sapiens (Human))
IC50 / nM: 374
--
compound: C[C@H](Nc1nc(N)nc(N)c1C#N)c1nc2cccc(Cl)c2c(=O)n1CCCNc1ccccn1 [Compound 5]
measurement target: PI3Kβ (Homo sapiens (Human))
IC50 / nM: 930
--
compound: C[C@H](Nc1nc(N)nc(N)c1C#N)c1nc2c(Cl)ccc(Cl)c2c(=O)n1[C@H]1C[C@@H](O)C1 [Compound 103]
measurement target: PI3Kβ (Homo sapiens (Human))
IC50 / nM: 21
--
compound: C[C@H](Nc1ncnc(N)c1C#N)c1nc2cccc(Cl)c2c(=O)n1CCCCN [Compound 28]
measurement target: PI3Kβ (Homo sapiens (Human))
IC50 / nM: 100

---

biological target: PI3Kγ (Homo sapiens (Human)); experiment: TR-FRET enzymatic activity assay against PI3K isoforms; settings: 2×Km ATP, 30 minutes at 25° C.
Sequence (P48736 whole entry, canonical isoform): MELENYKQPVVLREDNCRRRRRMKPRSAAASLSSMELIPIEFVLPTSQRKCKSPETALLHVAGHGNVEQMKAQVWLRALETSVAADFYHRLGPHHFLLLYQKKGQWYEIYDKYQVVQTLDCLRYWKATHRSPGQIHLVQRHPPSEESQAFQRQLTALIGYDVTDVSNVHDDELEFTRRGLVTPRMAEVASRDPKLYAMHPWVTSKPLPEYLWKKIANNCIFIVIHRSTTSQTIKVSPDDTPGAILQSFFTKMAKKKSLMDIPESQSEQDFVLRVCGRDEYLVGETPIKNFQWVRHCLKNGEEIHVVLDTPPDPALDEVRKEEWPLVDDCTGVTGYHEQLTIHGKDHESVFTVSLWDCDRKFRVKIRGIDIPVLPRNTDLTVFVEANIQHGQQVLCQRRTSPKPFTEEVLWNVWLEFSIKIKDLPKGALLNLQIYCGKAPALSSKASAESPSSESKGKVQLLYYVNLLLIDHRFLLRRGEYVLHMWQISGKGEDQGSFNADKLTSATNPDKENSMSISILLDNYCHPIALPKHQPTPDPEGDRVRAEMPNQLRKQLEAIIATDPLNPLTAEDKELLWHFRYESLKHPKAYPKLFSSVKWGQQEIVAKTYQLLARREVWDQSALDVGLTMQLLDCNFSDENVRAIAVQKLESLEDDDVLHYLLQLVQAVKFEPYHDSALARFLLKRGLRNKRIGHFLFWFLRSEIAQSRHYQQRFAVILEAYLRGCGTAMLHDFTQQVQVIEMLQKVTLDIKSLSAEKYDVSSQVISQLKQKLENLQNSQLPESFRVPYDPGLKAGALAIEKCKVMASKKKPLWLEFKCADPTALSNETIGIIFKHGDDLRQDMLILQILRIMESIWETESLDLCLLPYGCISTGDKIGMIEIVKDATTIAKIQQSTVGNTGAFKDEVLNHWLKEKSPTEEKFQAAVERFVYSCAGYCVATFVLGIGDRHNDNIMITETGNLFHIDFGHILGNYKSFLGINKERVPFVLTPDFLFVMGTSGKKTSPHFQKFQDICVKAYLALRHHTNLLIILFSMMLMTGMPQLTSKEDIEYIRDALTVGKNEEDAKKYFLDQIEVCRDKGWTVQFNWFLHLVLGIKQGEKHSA
Consider the following compounds and their measured IC50 readings.

compound: C[C@H](Nc1nc(N)nc(N)c1C#N)c1nc2cccc(Cl)c2c(=O)n1CCC#N
unit annotation: nM
inequality operator: =
IC50: 78
//
compound: C[C@H](Nc1ncnc(N)c1C#N)c1nc2cccc(Cl)c2c(=O)n1CC1CNCCO1 (stereo partly shown)
unit annotation: nM
inequality operator: ≥
IC50: 10000
//
compound: C[C@H](Nc1nc(N)nc(N)c1C#N)c1nc2cccc(Cl)c2c(=O)n1CCCN(C)Cc1ccccc1
unit annotation: nM
inequality operator: =
IC50: 6400
//
compound: N#Cc1c(N)nc(N)nc1N[C@H](c1nc2c(Cl)ccc(Cl)c2c(=O)n1[C@H]1C[C@H](O)C1)C1CC1
unit annotation: nM
inequality operator: =
IC50: 2900

---

pIC50 listing for selected compounds.
target: PI3Kβ (Homo sapiens (Human)); test: TR-FRET enzymatic activity assay against PI3K isoforms; details: PI3Kβ, TR-FRET, 2×Km ATP, 30 minutes at 25° C.
pIC50: −log10 of the molar value.
metric name: pIC50

compound: CC(C)C[C@H](Nc1ncnc(N)c1C#N)c1nc2cccc(Cl)c2c(=O)n1CCCN
measurement target: PI3Kβ (Homo sapiens (Human))
val: 5.68

compound: CC[C@H](Nc1nc(N)nc(N)c1C#N)c1nc2cccc(Cl)c2c(=O)n1CCCS(C)(=O)=O
measurement target: PI3Kβ (Homo sapiens (Human))
val: 6.60

compound: N#Cc1c(N)nc(N)nc1N[C@H](c1nc2cccc(Cl)c2c(=O)n1CCCNC1COC1)C1CC1
measurement target: PI3Kβ (Homo sapiens (Human))
val: 8.40

compound: CS(=O)(=O)CCCCn1c([C@@H](Nc2nc(N)nc(N)c2C#N)C2CC2)nc2cccc(Cl)c2c1=O
measurement target: PI3Kβ (Homo sapiens (Human))
val: 7.64

compound: C[C@H](Nc1nc(N)nc(N)c1C#N)c1nc2cccc(Cl)c2c(=O)n1Cc1cn[nH]c1
measurement target: PI3Kβ (Homo sapiens (Human))
val: 7.40

compound: NCCCn1c([C@@H](Nc2ncnc3cccnc23)C2CC2)nc2cccc(Cl)c2c1=O
measurement target: PI3Kβ (Homo sapiens (Human))
val: 7.24

compound: N#Cc1c(N)nc(N)nc1N[C@H](c1nc2c(Cl)cc(F)cc2c(=O)n1CCCC(N)=O)C1CC1
measurement target: PI3Kβ (Homo sapiens (Human))
val: 8.05

compound: CC[C@H](Nc1nc(N)nc(N)c1C#N)c1nc2cccc(Cl)c2c(=O)n1CCCN
measurement target: PI3Kβ (Homo sapiens (Human))
val: 7.15

compound: CNCCCn1c([C@H](C)Nc2nc(N)nc(N)c2C#N)nc2cccc(Cl)c2c1=O
measurement target: PI3Kβ (Homo sapiens (Human))
val: 7.60

compound: C[C@H](NC(=O)c1c(N)nn2cccnc12)c1nc2cccc(Cl)c2c(=O)n1CCCN
measurement target: PI3Kβ (Homo sapiens (Human))
val: 7.36

compound: C[C@H](Nc1nc(N)nc(N)c1Cl)c1nc2cccc(Cl)c2c(=O)n1CCCN
measurement target: PI3Kβ (Homo sapiens (Human))
val: 6.85

compound: C[C@H](Nc1nc(N)nc(N)c1C#N)c1nc2cccc(Cl)c2c(=O)n1CC1CCCNC1 (stereo in doubt) [Compound 123]
measurement target: PI3Kβ (Homo sapiens (Human))
val: 7.10

compound: C[C@H](Nc1ncnc(N)c1C#N)c1nc2cccc(Cl)c2c(=O)n1C[C@@H](O)CO
measurement target: PI3Kβ (Homo sapiens (Human))
val: 6.28

compound: CC(=O)NCCCn1c([C@@H](Nc2nc(N)nc(N)c2C#N)C2CC2)nc2cccc(Cl)c2c1=O
measurement target: PI3Kβ (Homo sapiens (Human))
val: 8.05

compound: C[C@H](Nc1nc(N)nc(N)c1C#N)c1nc2cccc(Cl)c2c(=O)n1CCCNc1ncccn1
measurement target: PI3Kβ (Homo sapiens (Human))
val: 6.38

compound: N#Cc1c(N)ncnc1N[C@H](c1nc2cccc(Cl)c2c(=O)n1CCCN)C1CC1
measurement target: PI3Kβ (Homo sapiens (Human))
val: 7.68

compound: Nc1nc(N)c(Cl)c(N[C@H](c2nc3c(Cl)ccc(Cl)c3c(=O)n2[C@H]2C[C@@H](O)C2)C2CC2)n1
measurement target: PI3Kβ (Homo sapiens (Human))
val: 6.14

compound: C[C@H](Nc1nc(N)nc(N)c1C#N)c1nc2cccc(Cl)c2c(=O)n1CCCNCc1ccccc1
measurement target: PI3Kβ (Homo sapiens (Human))
val: 7.17

compound: NC(=O)CCn1c([C@@H](Nc2nc(N)nc(N)c2Cl)C2CC2)nc2cccc(Cl)c2c1=O
measurement target: PI3Kβ (Homo sapiens (Human))
val: 6.28

compound: C[C@H](Nc1ncnc(N)c1C#N)c1nc2cccc(Cl)c2c(=O)n1CC1CCCCN1 (stereo partly shown)
measurement target: PI3Kβ (Homo sapiens (Human))
val: 5.77

compound: CC(CN)Cn1c([C@H](C)Nc2ncnc(N)c2C#N)nc2cccc(Cl)c2c1=O (stereo partly shown)
measurement target: PI3Kβ (Homo sapiens (Human))
val: 6.70

compound: N#Cc1c(N)nc(N)nc1N[C@H](c1nc2c(Cl)ccc(Cl)c2c(=O)n1[C@H]1C[C@@H](O)C1)C1CC1
measurement target: PI3Kβ (Homo sapiens (Human))
val: 8.00

compound: CS(=O)(=O)CCCn1c([C@@H](Nc2nc(N)nc(N)c2C#N)C2CC2)nc2c(Cl)ccc(Cl)c2c1=O
measurement target: PI3Kβ (Homo sapiens (Human))
val: 8.10

compound: Cc1nc(N)nc(N[C@@H](C)c2nc3cccc(Cl)c3c(=O)n2CCCN(C)Cc2ccccc2)c1C#N
measurement target: PI3Kβ (Homo sapiens (Human))
val: 6.85

compound: N#Cc1c(N)nc(N)nc1N[C@H](c1nc2c(Cl)cc(F)cc2c(=O)n1[C@H]1C[C@@H](O)C1)C1CC1
measurement target: PI3Kβ (Homo sapiens (Human))
val: 7.18

compound: C[C@H](Nc1ncnc(N)c1C#N)c1nc2cccc(Cl)c2c(=O)n1N(CCN)Cc1ccccc1 [Compound 12]
measurement target: PI3Kβ (Homo sapiens (Human))
val: 6.52

compound: C[C@H](Nc1nc(N)nc(N)c1C#N)c1nc2cccc(Cl)c2c(=O)n1CCC(O)CNC(C)(C)C (stereo partly shown)
measurement target: PI3Kβ (Homo sapiens (Human))
val: 7.72

compound: CNCCCn1c([C@H](C)Nc2ncnc(N)c2C#N)nc2cccc(Cl)c2c1=O
measurement target: PI3Kβ (Homo sapiens (Human))
val: 7.33

compound: N#Cc1c(N)nc(N)nc1N[C@@H](c1ccccc1)c1nc2cccc(Cl)c2c(=O)n1CCCN
measurement target: PI3Kβ (Homo sapiens (Human))
val: 7.57

compound: C[C@H](Nc1ncnc(N)c1C#N)c1nc2cccc(Cl)c2c(=O)n1CCCN(C)C
measurement target: PI3Kβ (Homo sapiens (Human))
val: 6.32

compound: C[C@H](Nc1nc(N)nc(N)c1C#N)c1nc2cccc(Cl)c2c(=O)n1CCCN(C)CC(F)(F)F
measurement target: PI3Kβ (Homo sapiens (Human))
val: 6.49
